Experiment: Tissue distribution of SHR9146 in mice after oral gavage of 40 mg/kg
Type: in vivo, ICR mice
Conditions: female, ICR, mouse, brain, po, 40 mg/kg, female, 1 h, 40 mg/kg oral gavage, Mean (n=3); read-out: SHR9146 concentration in Brain
Procedure: ICR mice with body weight 16–26 g were supplied by Shanghai Lingchang Biotechnology Co., Ltd. (animal breeding license number SCXK (Shanghai) 2013-0018) and housed at Shanghai Institute of Materia Medica, Chinese Academy of Sciences [animal use license number SYXK (Shanghai) 2015-0027]. The mice used in this study were fasted overnight for 12 h but had free access to water. Food was supplied 4 h post-dose. […]
readout-name: concentration at 1 h (ng/g)

input-smiles: OCCn1cc(-c2ccc(N3CCC([C@H]4c5c(F)cccc5-c5cncn54)CC3)cc2)cn1
readout-name: concentration at 1 h
result-value: 2370
